Property: IC50; scope: individual molecules
Target: Human KLKB1 (Homo sapiens (Human))
Sequence (P03952 391-638 limits assumed): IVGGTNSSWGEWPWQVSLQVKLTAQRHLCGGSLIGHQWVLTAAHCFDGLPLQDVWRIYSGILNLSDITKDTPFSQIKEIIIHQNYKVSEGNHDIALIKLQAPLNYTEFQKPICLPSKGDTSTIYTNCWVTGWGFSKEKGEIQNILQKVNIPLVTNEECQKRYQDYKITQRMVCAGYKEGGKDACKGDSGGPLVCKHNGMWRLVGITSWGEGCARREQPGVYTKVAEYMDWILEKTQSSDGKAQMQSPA
Sequence (P03952 20-390 partner limits assumed): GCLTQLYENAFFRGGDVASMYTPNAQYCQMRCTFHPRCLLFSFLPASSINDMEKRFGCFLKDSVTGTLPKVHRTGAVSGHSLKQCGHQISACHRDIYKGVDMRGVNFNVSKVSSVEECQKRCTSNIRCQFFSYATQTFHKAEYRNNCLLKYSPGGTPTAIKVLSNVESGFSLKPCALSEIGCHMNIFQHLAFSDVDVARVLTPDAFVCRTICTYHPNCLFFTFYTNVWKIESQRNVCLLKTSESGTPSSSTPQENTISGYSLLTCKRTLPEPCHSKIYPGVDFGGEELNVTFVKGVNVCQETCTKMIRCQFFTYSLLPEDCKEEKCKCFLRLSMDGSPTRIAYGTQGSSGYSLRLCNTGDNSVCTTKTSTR
Experiment: KLKB1 kallikrein activity inhibition assay (chromogenic substrate S-2302)
Format: biochemical
Details: Table B

>>> print(df.to_string())
                                   molecule               val
0  O=C(c1ccco1)n1nc(-c2cccn(Cc3ccccn3)c2=O)cc1NCc1ccccc1 [Cmpd 238]  1000 to 10000 nM
1  COCCn1cccc(-c2cc(NCc3ccc(Cl)s3)n(C(=O)c3ccccc3)n2)c1=O [Cmpd 62]  1000 to 10000 nM
2  O=c1c(-c2cc(NCc3ccc(Cl)s3)[nH]n2)cccn1Cc1ccncc1 [Cmpd 229]       > 100000 nM
3  O=C(c1ccoc1)n1nc(-c2cccn(Cc3ccccn3)c2=O)cc1NCc1ccc(Cl)s1 [Cmpd 25]    100 to 1000 nM
4  O=C(c1ccccc1Cl)n1nc(-c2cccn(Cc3ccncc3)c2=O)cc1NCc1ccc(Cl)s1 [Cmpd 248]    100 to 1000 nM

Inquiry: Report IC50, nothing else, for this molecule: O=C(c1ccoc1)n1nc(C2CCOCC2)c(F)c1NCc1ccc(Cl)s1 [Cmpd 294]
Reply text: 1000 to 10000 nM
